- Test system: CP252
- ASSAY NOTES: qHTS profiling for inhibitors of Plasmodium falciparum proliferation (AID 504749); also: nearly all actives have a fitted effect of over 60% in size
- TEST CONTEXT: P. falciparum in erythrocytes, SYBR Green DNA, 72 h; series mostly up to 12.8 µM
Records with an inconclusive call do not appear. The source made the active and inactive calls. Calls follow the shape of the dose curve; as a rule, active = well fitted inhibition curve with a large enough effect; inconclusive = small, poorly fitted or top-dose-only effect; inactive = flat fitted curve, though single readings scatter.
I would appreciate it if you answered using one of these outcomes: active, inactive

Check out these entries, answers already filled in.
INSERT INTO results (compound, tested_target, assigned_category) VALUES
  ('O=C1C=C2C=CC3C[C@@]2(O1)C1CCCCN31 (some centres undefined)', 'CP252', 'active'),
  ('N[C@H]1C[C@H]1c1ccccc1', 'CP252', 'inactive'),
  ('CN[C@@H](C)[C@H]1CC[C@@H](N)[C@@H](O[C@@H]2[C@@H](O)[C@@H](O[C@H]3OC[C@@](C)(O)[C@@H](NC)[C@@H]3O)[C@H](N)C[C@@H]2N)O1 (tested in a mixture with another compound)', 'CP252', 'inactive'),
  ('C[C@]12CC[C@H]3[C@@H](CCC4=CC(=O)CC[C@@]43C)[C@@H]1CC[C@@H]2O', 'CP252', 'inactive'),
  ('C[N+]1(C)[C@@H]2CC[C@H]1CC(OC(=O)[C@@H](CO)c1ccccc1)C2 (some centres undefined)', 'CP252', 'inactive'),
  ('CC(=O)OCC(=O)[C@@H]1CC[C@H]2[C@H]3CC[C@H]4C[C@@H](O)CC[C@]4(C)[C@@H]3C(=O)C[C@@]12C', 'CP252', 'inactive'),
  ('CC[C@@]1(c2ccc(N)cc2)CCC(=O)NC1=O', 'CP252', 'inactive'),
  ('Oc1ccc2c3c1O[C@H]1[C@@H](O)CC[C@@]4(O)C(C2)N(CC2CCC2)CCC314 (some centres undefined)', 'CP252', 'inactive');

Alright, here's another compound for you.
For C=CC1CN2CCC1CC2C(OC(=O)OCC)c1ccnc2ccc(OC)cc12 (centres undefined) , which call appears in the assay record?
active

----------
- ASSAY NOTES: Confirmatory qHTS to identify inhibitors of SARS-CoV-2 cell entry (AID 1645844); also: potency is read from the fitted curve at half-maximal effect; nearly all actives have a fitted effect of over 45% in size
- TEST CONTEXT: SARS-CoV-2 pseudotyped particle cell entry, luciferase; series mostly up to 57.2 µM
Results filed as inconclusive are left out. Activity calls are given as the source filed them. Calls follow the shape of the full dose curve.
ENDPOINT: Potency

As a guide, the following entries are already answered.
INSERT INTO measurements (compound, observed_measurement) VALUES
  ('CCOc1ccc2c(c1)C(C)=CC(C)(C)N2', '31200 nM (active)'),
  ('Nc1ncc(C(=O)NC2CN(C(=O)C3CC3)C2)c2ccc(-c3cccc(F)c3)nc12', '2710 nM (active)'),
  ('CN[C@H]1CN(c2ccc3c(=O)c(C(=O)O)cn(-c4nccs4)c3n2)C[C@@H]1OC', '555 nM (active)');

Now turn to the next compound.
Identify measured Potency associated with COc1cc([C@@H]2c3cc4c(cc3C(O[C@@H]3O[C@@H]5CO[C@@H](c6cccs6)OC5[C@H](O)[C@H]3O)C3COC(=O)[C@@H]32)OCO4)cc(OC)c1O (some centres undefined)
48.2 nM (active)

----------
- ASSAY NOTES: Primary qHTS for inhibitors of MERS-S pseudo-typed particle cell entry (AID 1479149); also: nearly all actives have a fitted effect of over 60% in size
- TEST CONTEXT: MERS-S pseudotyped particle entry, luciferase; series mostly up to 57.1 µM
Records with an inconclusive call do not appear. Active and inactive are the calls of the source. Calls come from the whole dose curve.
I would appreciate it if you answered using one of these outcomes: True (active), False (inactive)

Check out these entries, answers already filled in.
INSERT INTO assay_data (molecule, assigned_category) VALUES
  ('CC1=CC(=C(c2ccc(N)cc2)c2ccc(N)cc2)C=CC1=N', 'True'),
  ('CCCCCCCCCCC(=O)O[C@H]1CC[C@H]2[C@@H]3CCC4=CC(=O)CC[C@]4(C)[C@H]3CC[C@]12C', 'False'),
  ('NCCC[C@H](NC(=O)[C@@H]1CCCN1C(=O)[C@@H]1CSSC[C@H](N)C(=O)N[C@@H](Cc2ccc(O)cc2)C(=O)N[C@@H](Cc2ccccc2)C(=O)N[C@@H](CCC(N)=O)C(=O)N[C@@H](CC(N)=O)C(=O)N1)C(=O)NCC(N)=O', 'False'),
  ('O=C(O)C(O)C(O)C(=O)O (centres undefined)', 'False'),
  ('CC(C)OC(=O)Nc1ccc2nc(-c3cscn3)[nH]c2c1', 'False'),
  ('COc1cccc(N2CCN(C3=Nc4c(F)cccc4[C@H](CC(=O)O)N3c3cc(C(F)(F)F)ccc3OC)CC2)c1', 'False'),
  ('CC1(C)S[C@H]2[C@H](NC(=O)[C@@H](N)c3ccc(O)cc3)C(=O)N2[C@H]1C(=O)O', 'False'),
  ('Cc1cc(Nc2ccccc2C(=O)O)ccc1Cl', 'False');

Alright, here's another molecule for you.
For C[Si](C)(C)O[Si](C)(C)O[Si](C)(C)C , which call appears in the assay record?
False

----------
- ASSAY NOTES: qHTS assay to identify small molecules that stimulate interleukin-8 (IL-8) secretion (AID 651758); as to activation: 0% is about no effect
- TEST CONTEXT: HTRF ratio (665/615); series mostly up to 92.2 µM
Inconclusive results are not listed. Activity calls are given as the source filed them. Calls come from the whole dose curve; as a rule, active = well fitted activation curve with a large enough effect in the signal ratio; inconclusive = small, poorly fitted or top-dose-only effect, or effect the other way, or a change in a side signal; inactive = flat fitted curve, though single readings scatter; the % refers to the signal ratio.
I would appreciate it if you answered using one of these outcomes: 1 (yes) (active), 0 (no) (inactive)

Check out these entries, answers already filled in.
INSERT INTO assay_data (compound, assigned_category) VALUES
  ('O=C=NC1CCCCC1', '0 (no)'),
  ('ClC1=C(Cl)C2(Cl)C3C(Cl)C=CC3C1(Cl)C2(Cl)Cl (stereo not given)', '1 (yes)'),
  ('CCCC(=O)Cl', '0 (no)'),
  ('ClC(Cl)=C(Cl)Cl', '0 (no)'),
  ('CCOCN(C(=O)CCl)c1c(C)cccc1CC', '0 (no)');

For C[N+](C)(C)Cc1ccccc1 , which call appears in the assay record?
0 (no)

For CNC(=O)O/N=C/C(C)(C)SC , which call appears in the assay record?
0 (no)

For C=CCOC(=O)c1ccccc1N , which call appears in the assay record?
0 (no)

For COc1ccc(N)cc1 , which call appears in the assay record?
0 (no)

For CC(C)(c1ccccc1)c1ccc(O)cc1 , which call appears in the assay record?
0 (no)

For C=C(Cl)Cl , which call appears in the assay record?
0 (no)

For CCOc1ccc(N)cc1 , which call appears in the assay record?
0 (no)

For Cc1ccc([N+](=O)[O-])cc1C , which call appears in the assay record?
0 (no)

For ClC(Cl)=C(Cl)C(Cl)=C(Cl)Cl , which call appears in the assay record?
0 (no)

For O=S1OCC2C(CO1)C1(Cl)C(Cl)=C(Cl)C2(Cl)C1(Cl)Cl (stereo not given) , which call appears in the assay record?
1 (yes)

----------
- ASSAY NOTES: qHTS Assay for Lipid Storage Modulators (AID 1519)
- TEST CONTEXT: Drosophila S3 cells, BODIPY lipid droplet/cell ratio, laser cytometry; measured here: cell count channel max response; cells loaded with oleic acid
Inconclusive results are not listed.
ENDPOINT: max response
Give the number first and the unit second.

As a guide, the following entries are already answered.
INSERT INTO assay_data (molecule, observed_measurement) VALUES
  ('c1csc(CN2CC[C@@]3(CCCNC3)C2)n1', '-1.59%'),
  ('CC[C@]1(c2cccc(O)c2)CCCCN(C)C1', '-13.2%'),
  ('CNC(=O)Oc1ccc2c(c1)[C@@]1(C)CCN(C)C1N2C (some centres not stated)', '3.75%'),
  ('COP(=O)(OC)[C@@H](O)C(Cl)(Cl)Cl', '5.96%'),
  ('CN1CC[C@@]2(CCCN(C(=O)c3ccncc3)C2)C1', '5.11%');

Give max response for all molecules that follow.
1. CC(=O)OC1CC2C(C)(C)C(=O)C=C[C@]2(C)C2CC[C@]3(C)C(=CC(=O)OC3c3ccoc3)[C@]12C (some centres not stated)
2. O=c1cccc2n1CC1CC2CN2CCCCC12 (configuration not stated)
3. COc1ccc(/C=C/c2cc(O)cc(O)c2)cc1

5.48%
1.81%
1.7%

Give max response for all molecules that follow.
1. CN1CCCC2(CCN(C(=O)c3csnn3)CC2)C1
2. CC(=O)C1=C(O)C2C3c4c[nH]c5cccc(c45)CC3C(C)(C)N2C1=O (configuration not stated)
3. CC(N)[C@@H](O)c1ccccc1 (some centres not stated)
4. O=C(Nc1cccc(F)c1)N1CC2(CCN(C(=O)Oc3ccccc3)CC2)C1

-8.1%
15.9%
11.6%
-9.16%

----------
- Tested on: DIV14
- ASSAY NOTES: qHTS profiling for inhibitors of Plasmodium falciparum proliferation (AID 504749); also: nearly all actives have a fitted effect of over 60% in size
- TEST CONTEXT: P. falciparum in erythrocytes, SYBR Green DNA, 72 h; series mostly up to 28.7 µM
Inconclusive results are not listed. Calls of active or inactive are those of the source. Calls come from the whole dose curve; as a rule, active = well fitted inhibition curve with a large enough effect; inconclusive = small, poorly fitted or top-dose-only effect; inactive = flat fitted curve, though single readings scatter.
I would appreciate it if you answered using one of these outcomes: 1 (active), 0 (inactive)

Check out these entries, answers already filled in.
INSERT INTO measurements (molecule, assigned_category) VALUES
  ('C[C@@H]1O[C@H](O[C@@H]2C=C3CC[C@H]4[C@@H](CC[C@]5(C)[C@@H](c6ccc(=O)oc6)CC[C@]45O)[C@@]3(C)CC2)[C@@H](O)[C@H](O)[C@@H]1O', 0),
  ('CNC(C)[C@@H](O)c1ccc(O)cc1 (some centres undefined)', 0);

For [Hg+][c]1ccccc1 , which call appears in the assay record?
1

For CC1=C2[C@@H]3OC(=O)[C@@H](C)[C@@H]3CC[C@]2(C)C=CC1=O , which call appears in the assay record?
0

For C[C@]12CC[C@H](O)C[C@H]1CCC1C2CC[C@]2(C)[C@@H](c3ccc(=O)oc3)C[C@H]3O[C@]132 (some centres undefined) , which call appears in the assay record?
1

For ClC1=C(Cl)C2(Cl)C3C4CC(C5OC45)C3C1(Cl)C2(Cl)Cl (centres undefined) , which call appears in the assay record?
0

For C[C@@]12CC[C@H]3[C@@H](CC[C@@H]4C[C@H]5S[C@H]5C[C@]43C)[C@H]1CC[C@H]2O , which call appears in the assay record?
0

For CC[C@@]1(c2ccc(N)cc2)CCC(=O)NC1=O , which call appears in the assay record?
0

For COc1cc(N)c(Cl)cc1C(=O)N[C@@H]1CN2CCC1CC2 , which call appears in the assay record?
0

Where these numbers come from: PubChem BioAssay (NCATS)
